experiment: Oral bioavailability in cynomolgus monkey; type: ADME, organism-based, Macaca fascicularis; settings: in vivo

CHEM_SMILES	VALUE_UNIT	bioavailability
COc1cc(C(=O)N2CC[C@]3(C=C(C(=O)O)CC3)Cc3ccccc32)ccc1NC(=O)c1cc(F)ccc1Cl	%	23

###

assay: Aqueous solubility at pH 7.4; assay type: physicochemical

CHEM_SMILES	solubility
COc1cc(C(=O)N2CC[C@]3(C=C(C(=O)O)CC3)Cc3ccccc32)ccc1NC(=O)c1cc(F)ccc1Cl	> 1000 µg/mL

###

target: Vasopressin V2 receptor (Homo sapiens, UniProt P30518); test: Antagonist activity at human vasopressin V2 receptor expressed in HEK293 cells assessed as inhibition of Arg-vasopressin-induced cAMP levels; type: functional, cell-based
Sequence (P30518 whole entry): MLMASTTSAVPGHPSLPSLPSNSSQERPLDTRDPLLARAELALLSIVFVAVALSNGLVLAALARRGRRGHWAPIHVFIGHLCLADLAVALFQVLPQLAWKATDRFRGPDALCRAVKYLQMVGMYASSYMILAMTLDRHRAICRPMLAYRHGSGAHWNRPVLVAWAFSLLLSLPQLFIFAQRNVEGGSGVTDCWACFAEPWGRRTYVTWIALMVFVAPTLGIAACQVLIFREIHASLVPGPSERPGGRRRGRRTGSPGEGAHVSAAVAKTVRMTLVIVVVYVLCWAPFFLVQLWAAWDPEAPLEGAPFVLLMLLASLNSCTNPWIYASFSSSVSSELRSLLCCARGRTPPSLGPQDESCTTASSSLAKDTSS

COMPOUND	VALUE_UNIT	VALUE_QUALIFIER	IC50
COc1cc(C(=O)N2CCC3(C=C(C(=O)O)CC3)Cc3ccccc32)ccc1NC(=O)c1cc(F)ccc1Cl (stereo not given)	nM	=	120
CNCC1=CC2(CC1)CCN(C(=O)c1ccc(NC(=O)c3ccccc3-c3ccccc3)cc1)c1ccccc1C2 (stereo not given)	nM	=	1800
O=C(O)C1=CC2(CC1)CCN(C(=O)c1ccc(NC(=O)c3cc(F)ccc3Cl)cc1)c1ccccc1C2 (stereo not given)	nM	=	410
O=C(O)C1=CC2(CC1)CCN(C(=O)c1ccc(NC(=O)c3ccccc3-c3ccccc3)cc1)c1ccccc1C2 (stereo not given)	nM	=	360
COc1cc(NC(=O)c2cc(F)ccc2C)ccc1C(=O)N1CCC2(C=C(C(=O)O)CC2)Cc2ccccc21 (stereo not given)	nM	=	140
COc1cc(C(=O)N2CC[C@]3(C=C(C4=NCCN4)CC3)Cc3ccccc32)ccc1NC(=O)c1cc(F)ccc1Cl	nM	=	1050
CN(C)CCNC(=O)C1=C[C@@]2(CC1)CCN(C(=O)c1ccc(NC(=O)c3ccccc3-c3ccccc3)cc1)c1ccccc1C2	nM	=	36
COC(=O)C1=CC2(CC1)CCN(C(=O)c1ccc(NC(=O)c3cc(F)ccc3Cl)cc1)c1ccccc1C2 (stereo not given)	nM	>	10000
O=C(Nc1ccc(C(=O)N2CCC3(C=C(CO)CC3)Cc3ccccc32)cc1)c1ccccc1-c1ccccc1 (stereo not given)	nM	=	190
COC(=O)C1=CC2(CC1)CCN(C(=O)c1ccc(NC(=O)c3ccccc3F)cc1)c1ccccc1C2 (stereo not given)	nM	>	10000
